- Tested on: MS2 coat protein
- testSummary: apparent Kd, MS2 coat protein; higher = weaker binding; RNA-MaP array; FMN 200 µM where present
- conditionSummary: designed as: OFF switch for flavin mononucleotide; no ligand
// apparent Kd lookup, one value per entry
Provide only the numeric value, understood in nM.

Take a look at these entries with their results.
# seq, testTarget, apparent Kd, nM
records = [
    ("CCGUUACAUGAGGAUCACCCAUGUGAGGAUAUCGAUGUGACUAGCAGCGUGCGGGACUCGAGAAGGCACUUGGC", "MS2 coat protein", 57.8),
    ("GGAAAUCAUGUAGGAUAUGCAUGGCGAAGCUACGCAGAAGGACAUGAGGAUCACCCAUGUUCUAGCUACCGAGUUCGGUGGCAA", "MS2 coat protein", 21.6),
    ("GUAGAGUAAGGAUAUACUGAAUAGGAUAGAAUGGUUAGAAAGUAGAAGGUACAUGAGGAUCACCCAUGUAAUGU", "MS2 coat protein", 20.3),
    ("ACAUGAGGAUCACCCAUGUUUACAUGGAUUAUUAAUCUUGGAUAGGAUAUGUUAGUUAAGUAUUUACAGAAGGAUCAAUUCCUU", "MS2 coat protein", 27.7),
    ("GCGAGUAAAGCAGGAUAUCUAUUGUCUCGGAAACAUGAGGAUCACCCAUGUAGAGAAGGGCUAAGUCAUACAAUUCGAACUCGC", "MS2 coat protein", 11.2),
    ("CCAUGCAGUGUGAGGAUAUGCUGGUCCUUGGAUCAGCAGAAGGCACAUGAGGAUCACCCAUGUGAAUAGCGUGG", "MS2 coat protein", 44.6),
]

Now for the sequence whose apparent Kd we want.
**Query** Fill in the blank: the reported apparent Kd of CGAUAUACGAUGGACGGAAACGUACAUGAGGAUCACCCAUGUAGAAGGCGAUCCGCAACGCGGAUUGAGGAUAUAUACCACACA is ____.
**Result** 23.8

====

- Test system: MS2 coat protein
- testSummary: apparent Kd, MS2 coat protein; higher = weaker binding; RNA-MaP array; theophylline 2 mM where present
- conditionSummary: designed as: ON switch for theophylline; no ligand
// apparent Kd lookup, one value per entry
Provide only the numeric value, understood in nM.

Take a look at these entries with their results.
# seq, readoutName, endpointUnit, measValue
measured = [
    ("ACACGAGGAUCACCCGUGUCAUGUGGUGAUACCAGUUUACAUGAGAACCCUUGGCAGCAUAACAACAUGAGGAUCACCCAUGUCA", "apparent Kd", "nM", 32.3),
    ("AUCGCACCUGGUGAUACCAGCGUUUGCUCGCGACAUGAGGAUCACCCAUGUGGCCAGUGAUGCCCUUGGCAGCAUGGUCGGUGCA", "apparent Kd", "nM", 317),
]

**Query** Fill in the blank: the reported apparent Kd of AAUCUGUCGGGUGAUACCAGCCUCGGCGCAUCUCACGCUGAACAUGAGGAUCACCCAUGUGGCCCUUGGCAGCACAUGACAAAUC is ____.
**Result** 572

**Query** Do the same for UGUACAUGAGGAUCACCCAUGUUACAUGAUACCAGACAUGAGAGUGUCCCUUGGCAGCAUGGAGCUGAUACGGCGGGAAGCCGGA please
**Result** 26.8

**Query** Do the same for AUCGUACCUGAUGAUACCAGCAUGUGAUCGUAACAUGAGGAUCACCCAUGUGAUCAGUGAUGCCCUUGGCAGCAUGAUCGGUACA please
**Result** 35.4

**Query** Do the same for ACAUGAGGAUCACCCAUGUCACGGCACGAUACCAGCUGAUCCGGUGGCCCUUGGCAGCGUGACGUUUGGUCCCGCGGAUGACACG please
**Result** 134

**Query** Do the same for GCCAGACAUGAGGAUCACCCAUGUAGCGAUACCAGCUCUGUUGUGAGCCCUUGGCAGCGCACUGGCAUCGUAGGUGAUCCAAUAA please
**Result** 75.2
